System: Bacillus cereus
RUN_DESCRIPTION: Antibacterial activity against Bacillus cereus ATCC 10987 assessed as decrease in membrane integrity at 2x MIC incubated for 18 hrs by propidium iodide staining assay
Format: functional, organism-based
Calls of active or inactive are those of the source. The rule behind the calls is not given here.

| QUERY_SMILES | Activity |
| --- | --- |
| CCCCOc1cc(/C=C/c2ccc(OS(=O)(=O)O)cc2)cc(OS(=O)(=O)O)c1 | Active |
| CC(C)[Si](Oc1ccc(/C=C/c2cc(O)cc(O)c2)cc1)(C(C)C)C(C)C | Active |
| CC(C)[Si](Oc1cc(O)cc(/C=C/c2ccc(O)cc2)c1)(C(C)C)C(C)C | Active |
| CC(C)(C)[Si](C)(C)Oc1ccc(/C=C/c2cc(O)cc(O)c2)cc1 | Active |
